- Test system: HCT116
- test-parameters: 72 h; ICRF193 0 nM
Where a name gives a salt, the structure may show the parent alone.
Measured IC50 cell viability accompanies every entry in the list below.
metric: IC50 cell viability

>>> experimental_result("CCc1ccc(CCOc2ccc(CC3SC(=O)NC3=O)cc2)nc1 (stereo not given) [Pioglitazone hydrochloride]")
"> 45.8 µM"
>>> experimental_result("CC1=C(C(=O)O)N2C(=O)[C@@H](NC(=O)[C@H](N)c3ccccc3)[C@H]2SC1")
"> 45.8 µM"
>>> experimental_result("O=C(CCCN1CCN(c2ccc(F)cc2)CC1)NC1c2ccccc2CSc2ccccc21 (stereo not given) [Monatepil]")
"23.1 µM"
>>> experimental_result("Cc1cc(C)nc(NS(=O)(=O)c2ccc(N)cc2)n1")
"> 45.8 µM"
>>> experimental_result("O=C(O)c1ccccc1C(c1ccc(O)cc1)c1ccc(O)cc1")
"> 45.8 µM"

Each recorded value in this set is attributed to the supplement of paper PMC12137928.
